tested on: A-375; experiment: Growth inhibition of human A375 cells at 10 uM after 72 hrs by MTT assay; type: functional; conditions: A-375, 72 h, read-out: GI
Binary classification by inhibition of growth at 10 µM, with 30% as an inclusive lower bound for Satisfied; all other cases are Not satisfied.

# check: inhibition of growth at 10 µM of COc1cccc(C(=O)Nc2ccc(C)c(C(=O)Nc3ccc(-c4ncc[nH]4)nc3)c2)c1 is greater than or equal to 30%
Not satisfied

Try this molecule too: Cc1ccc(NC(=O)c2ccc(Cl)cc2)cc1C(=O)Nc1ccc(-c2ncc[nH]2)nc1
Not satisfied

Try this molecule too: O=C(Nc1ccc(Cl)c(C(=O)Nc2ccc(-c3ncc[nH]3)nc2)c1)c1cccc(F)c1
Satisfied

Try this molecule too: Cc1ccc(NC(=O)c2cccc([N+](=O)[O-])c2)cc1C(=O)Nc1ccc(-c2ncc[nH]2)nc1
Not satisfied

Try this molecule too: O=C(Nc1ccc(Cl)c(C(=O)Nc2ccc(-c3ncc[nH]3)nc2)c1)c1cccc(Cl)c1
Satisfied

Try this molecule too: CNC(=O)c1cc(Oc2ccc(NC(=O)Nc3ccc(Cl)c(C(F)(F)F)c3)cc2)ccn1
Satisfied

----------
tested on: A-375; experiment: Growth inhibition of human A375 cells at 10 uM after 72 hrs by MTT assay; format: functional; details: A-375, 72 h, read-out: GI
experimental.readout: inhibition of growth at 10 µM (%)
Number only, in %; omit the unit.

Which inhibition of growth at 10 µM is listed for Cc1ccc(NC(=O)c2ccc(Br)cc2)cc1C(=O)Nc1ccc(-c2ncc[nH]2)nc1 ?
30.1

Try this compound too: O=C(Nc1ccc(Cl)cc1)c1ccc(Cl)c(C(=O)Nc2ccc(-c3ncc[nH]3)nc2)c1
21.9

Try this compound too: O=C(Nc1ccc(Cl)c(C(=O)Nc2ccc(-c3ncc[nH]3)nc2)c1)c1ccc(Cl)c(C(F)(F)F)c1
62.6

Try this compound too: Cc1ccc(NC(=O)c2ccc(Cl)c(Cl)c2)cc1C(=O)Nc1ccc(-c2ncc[nH]2)nc1
30.6

Try this compound too: O=C(Nc1cccc(Cl)c1)c1ccc(Cl)c(C(=O)Nc2ccc(-c3ncc[nH]3)nc2)c1
26.1

Try this compound too: Cc1ccc(C(=O)Nc2ccc(C)c(C(=O)Nc3ccc(-c4ncc[nH]4)nc3)c2)cc1
37.6

Try this compound too: COc1cccc(C(=O)Nc2ccc(Cl)c(C(=O)Nc3ccc(-c4ncc[nH]4)nc3)c2)c1
34.9

Try this compound too: Cc1cccc(C(=O)Nc2ccc(Cl)c(C(=O)Nc3ccc(-c4ncc[nH]4)nc3)c2)c1
40.8

----------
system: A-375; experiment: Growth inhibition of human A375 cells at 10 uM after 72 hrs by MTT assay; format: functional; settings: A-375, 72 h, read-out: GI
Hi there, I'd appreciate the recorded inhibition of growth at 10 µM for every entry that follows.
Number only, in %; omit the unit.

Which inhibition of growth at 10 µM is listed for Cc1cc(C(=O)Nc2ccc(C)c(C(=O)Nc3ccc(-c4ncc[nH]4)nc3)c2)ccc1Cl ?
37.3

Try this compound too: Cc1ccc(NC(=O)c2ccc(C(F)(F)F)cc2)cc1C(=O)Nc1ccc(-c2ncc[nH]2)nc1
40.4

Try this compound too: Cc1ccc(NC(=O)c2ccc(F)cc2)cc1C(=O)Nc1ccc(-c2ncc[nH]2)nc1
24.9

----------
test system: MDA-MB-453; assay: Growth inhibition of human MDA-MB-453 cells at 10 uM after 72 hrs by MTT assay; assay type: functional; conditions: MDA-MB-453, 72 h, read-out: GI
Binary classification by inhibition of growth at 10 µM, with 20% as an inclusive lower bound for Criterion met; all other cases are Criterion not met.

# check: inhibition of growth at 10 µM of Cc1ccc(NC(=O)c2ccc(Cl)c(C(F)(F)F)c2)cc1C(=O)Nc1ccc(-c2ncc[nH]2)nc1 is greater than or equal to 20%
Criterion not met

Try this compound too: Cc1ccc(C(=O)Nc2ccc(C)c(C(=O)Nc3ccc(-c4ncc[nH]4)nc3)c2)cc1
Criterion not met

Try this compound too: O=C(Nc1ccc(Cl)cc1)c1ccc(Cl)c(C(=O)Nc2ccc(-c3ncc[nH]3)nc2)c1
Criterion not met

Try this compound too: Cc1ccc(C(=O)Nc2ccc(Cl)c(C(=O)Nc3ccc(-c4ncc[nH]4)nc3)c2)cc1
Criterion met

Try this compound too: Cc1ccc(NC(=O)c2ccc(Cl)c(Cl)c2)cc1C(=O)Nc1ccc(-c2ncc[nH]2)nc1
Criterion met

Try this compound too: O=C(Nc1ccc(Cl)c(C(=O)Nc2ccc(-c3ncc[nH]3)nc2)c1)c1ccc(F)cc1
Criterion met

Try this compound too: CNC(=O)c1cc(Oc2ccc(NC(=O)Nc3ccc(Cl)c(C(F)(F)F)c3)cc2)ccn1
Criterion met

Try this compound too: O=C(Nc1ccc(Cl)c(C(=O)Nc2ccc(-c3ncc[nH]3)nc2)c1)c1ccc(Cl)cc1
Criterion met
